// provenance: ChEMBL document CHEMBL1151806

Test system: Aspergillus fumigatus
protocolDescription: Antimicrobial activity against Aspergillus fumigatus ATCC 90906 by alamar blue assay
Type: functional, organism-based
testSettings: Aspergillus fumigatus, ATCC 90906; read-out: IC50
measurementType: log10 of IC50 (log10 of the value in µg/mL)
Recorded IC50 (log10, µg/mL)

Please review the following examples before continuing.
C[C@H]1N[C@@H](CCCCCCCCCCC2=C[C@@H](CCCCCCCCCC[C@H]3CC[C@@H](O)[C@@H](C)N3)[C@@H]3CCCN3C2)CC[C@H]1O [JULIPROSOPINE]: -0.05
C[C@H]1N[C@@H](CCCCCCCCCCC2=C[C@@H](CCCCCCCCCC[C@@H]3CC[C@H](O)[C@@H](C)N3)[C@@H]3CCCN3C2)CC[C@H]1O.Cl.Cl: 0.81
C[C@@H]1N[C@H](CCCCCCCCCCC2=C[C@@H](CCCCCCCCCC[C@@H]3CC[C@@H](O)[C@H](C)N3)[C@@H]3CCCN3C2)CC[C@H]1O [PROSOPILOSINE]: -0.35
C[C@@H]1N[C@H](CCCCCCCCCCc2cc(CCCCCCCCCC[C@H]3CC[C@@H](O)[C@@H](C)N3)c[n+]3c2CCC3)CC[C@H]1O [ISOPROSOPILOSIDINE]: 0.81
C[C@@H]1[C@H](O)[C@@H](C)/C=C/C=C/C=C/C=C/C=C/C=C/C=C/[C@H](O[C@@H]2O[C@H](C)[C@@H](O)[C@H](N)[C@@H]2O)C[C@@H]2O[C@](O)(C[C@@H](O)C[C@@H](O)[C@H](O)CC[C@@H](O)C[C@@H](O)CC(=O)O[C@H]1C)C[C@H](O)[C@H]2C(=O)O [AMPHOTERICIN B]: -0.40

QUERY: Note down log10 of IC50 recorded for C[C@@H]1N[C@H](CCCCCCCCCCc2cc(CCCCCCCCCC[C@@H]3CC[C@H](O)[C@@H](C)N3)c3[n+](c2)CCC3)CC[C@H]1O.[Cl-] [PROSOPILOSIDINE]
RESULT: 0.48

QUERY: Note down log10 of IC50 recorded for C[C@H]1N[C@@H](CCCCCCCCCCC2=C[C@@H](CCCCCCCCCC[C@@H]3CC[C@H](O)[C@@H](C)N3)[C@@H]3CCCN3C2)CC[C@H]1O [ISOPROSOPILOSINE]
RESULT: -1.00

* * *

System: Cryptococcus neoformans
protocolDescription: Antimicrobial activity against Cryptococcus neoformans ATCC 90113 by NCCLS method
Assay type: functional, organism-based
Overview of reported MIC across a group of molecules:
Report the figure in µg/mL without appending any unit label.

Please review the following examples before continuing.
C[C@H]1N[C@@H](CCCCCCCCCCC2=C[C@@H](CCCCCCCCCC[C@@H]3CC[C@H](O)[C@@H](C)N3)[C@@H]3CCCN3C2)CC[C@H]1O [ISOPROSOPILOSINE]: 0.63
C[C@@H]1N[C@H](CCCCCCCCCCc2cc(CCCCCCCCCC[C@H]3CC[C@@H](O)[C@@H](C)N3)c[n+]3c2CCC3)CC[C@H]1O [ISOPROSOPILOSIDINE]: 1.25
C[C@@H]1N[C@H](CCCCCCCCCCc2cc(CCCCCCCCCC[C@@H]3CC[C@@H](O)[C@H](C)N3)c3[n+](c2)CCC3)CC[C@H]1O.[Cl-] [PROSOPILOSIDINE DIHYDROCHLORIDE]: 2.5
C[C@@H]1N[C@H](CCCCCCCCCCc2cc(CCCCCCCCCC[C@@H]3CC[C@H](O)[C@@H](C)N3)c3[n+](c2)CCC3)CC[C@H]1O.[Cl-] [PROSOPILOSIDINE]: 0.63

QUERY: Note down MIC recorded for `C[C@H]1N[C@@H](CCCCCCCCCCC2=C[C@@H](CCCCCCCCCC[C@@H]3CC[C@H](O)[C@@H](C)N3)[C@@H]3CCCN3C2)CC[C@H]1O.Cl.Cl`
RESULT: 1.25
